# tested.on: His tagged PTPN2 (TC45) protein (Homo sapiens, UniProt P17706)
# Sequence (P17706 with tags, fused parts or gaps isoform P17706-2): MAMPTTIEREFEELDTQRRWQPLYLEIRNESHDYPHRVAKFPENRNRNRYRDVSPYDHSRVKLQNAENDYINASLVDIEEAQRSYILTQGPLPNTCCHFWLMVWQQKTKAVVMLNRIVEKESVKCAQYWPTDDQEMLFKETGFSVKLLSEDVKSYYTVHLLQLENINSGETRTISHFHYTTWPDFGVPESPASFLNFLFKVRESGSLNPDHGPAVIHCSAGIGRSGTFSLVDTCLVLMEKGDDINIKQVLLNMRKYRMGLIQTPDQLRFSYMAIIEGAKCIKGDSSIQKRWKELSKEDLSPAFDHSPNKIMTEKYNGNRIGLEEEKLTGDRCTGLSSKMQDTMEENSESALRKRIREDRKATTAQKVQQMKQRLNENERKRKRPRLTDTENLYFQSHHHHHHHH
pIC50: −log10 of the molar value.
property.label: pIC50

{"columns": ["compound", "pIC50"],
 "data": [
  ["N#CC1(COc2ccc3cc(O)c(N4CC(=O)NS4(=O)=O)c(F)c3c2)CC1", "8.00 to 9.00"],
  ["O=C1CN(c2c(O)cc3ccc(OCCNCC(F)(F)F)cc3c2F)S(=O)(=O)N1", "8.00 to 9.00"],
  ["O=C1CN(c2c(O)cc3ccc(OCCC4CCOC4)cc3c2F)S(=O)(=O)N1 (stereo not drawn)", "> 9.00"],
  ["CC(C)CCNc1ccc2c(F)c(N3CC(=O)NS3(=O)=O)c(O)cc2c1", "7.00 to 8.00"],
  ["N#CCC1(COc2ccc3cc(O)c(N4CC(=O)NS4(=O)=O)c(F)c3c2)CC1", "8.00 to 9.00"],
  ["CCC(O)COc1ccc2cc(O)c(N3CC(=O)NS3(=O)=O)c(F)c2c1 (stereo not drawn)", "> 9.00"],
  ["O=C1CN(c2c(O)cc3ccc(OCCC4CCCC4)cc3c2F)S(=O)(=O)N1", "> 9.00"],
  ["CC(C)NCCCc1ccc2cc(O)c(N3CC(=O)NS3(=O)=O)c(F)c2c1", "8.00 to 9.00"],
  ["CC(C)(C)CCOc1ccc2cc(O)c(N3CC(=O)NS3(=O)=O)c(F)c2c1", "> 9.00"],
  ["O=C1CN(c2c(O)cc3ccc(OCCN4CCC(F)(F)C4)cc3c2F)S(=O)(=O)N1", "8.00 to 9.00"]
]}

Your task in this section: give pIC50 for each listed record.
1. O=C1CN(c2c(O)cc3ccc(NCCCC(F)F)cc3c2F)S(=O)(=O)N1
2. C[C@](O)(CO)CCOc1ccc2cc(O)c(N3CC(=O)NS3(=O)=O)c(F)c2c1

> 9.00
> 9.00

Here are 3 compounds. What values of pIC50 were reported for them?
1. O=C1CN(c2c(O)cc3ccc(OCCNS(=O)(=O)C4CC4)cc3c2F)S(=O)(=O)N1
2. O=C1CN(c2c(O)cc3ccc(OCCOC(F)(F)F)cc3c2F)S(=O)(=O)N1
3. CC(C)(CO)CCOc1ccc2cc(O)c(N3CC(=O)NS3(=O)=O)c(F)c2c1

1. 8.00 to 9.00
2. 8.00 to 9.00
3. > 9.00

###

Quick note: these are IC50 numbers for system: His tagged full-length PTP1B protein (Homo sapiens, UniProt P18031)

Use the examples below as a reference point.
{"columns": ["molecule", "obs.value"],
 "data": [
  ["O=C1CN(c2c(O)cc3cc(O)c(OCCC4CCOC4)cc3c2F)S(=O)(=O)N1 (centres unmarked) [Compound 367]", "< 1 nM"],
  ["O=C1CN(c2c(O)cc3ccc(OCCOC4CCC4)cc3c2F)S(=O)(=O)N1 [Compound 214]", "1 to 10 nM"],
  ["O=C1CN(c2c(O)cc3ccc(CCC4CC4)cc3c2F)S(=O)(=O)N1 [Compound 209]", "10 to 100 nM"]
]}

Give measured IC50 for every item shown.
1. CCCCOc1cc2c(F)c(N3CC(=O)NS3(=O)=O)c(O)cc2cc1O [Compound 363]
2. CC(C)(CN)CCOc1ccc2cc(O)c(N3CC(=O)NS3(=O)=O)c(F)c2c1 [Compound 176]
3. CC(C)CCCc1ccc2cc(O)c(N3CC(=O)NS3(=O)=O)c(F)c2c1 [Compound 219]
4. O=C1CN(c2c(O)cc3ccc(C4=CCN(S(=O)(=O)CCCO)C4)cc3c2F)S(=O)(=O)N1 [Compound 369]
5. CC(C)NCCCc1ccc2cc(O)c(N3CC(=O)NS3(=O)=O)c(F)c2c1 [Compound 349]
6. N#CC1(CCOc2ccc3cc(O)c(N4CC(=O)NS4(=O)=O)c(F)c3c2)CC1 [Compound 159]
7. CNCCOc1ccc2cc(O)c(N3CC(=O)NS3(=O)=O)c(F)c2c1 [Compound 143]
8. O=C1CN(c2c(O)cc3ccc(NCCNS(=O)(=O)C4CC4)cc3c2F)S(=O)(=O)N1 [Compound 125]

1. < 1 nM
2. 1 to 10 nM
3. 10 to 100 nM
4. < 1 nM
5. 1 to 10 nM
6. 1 to 10 nM
7. 10 to 100 nM
8. 10 to 100 nM

###

# tested.on: His tagged full-length PTP1B protein (Homo sapiens, UniProt P18031)
# Sequence (P18031 with tags, fused parts or gaps): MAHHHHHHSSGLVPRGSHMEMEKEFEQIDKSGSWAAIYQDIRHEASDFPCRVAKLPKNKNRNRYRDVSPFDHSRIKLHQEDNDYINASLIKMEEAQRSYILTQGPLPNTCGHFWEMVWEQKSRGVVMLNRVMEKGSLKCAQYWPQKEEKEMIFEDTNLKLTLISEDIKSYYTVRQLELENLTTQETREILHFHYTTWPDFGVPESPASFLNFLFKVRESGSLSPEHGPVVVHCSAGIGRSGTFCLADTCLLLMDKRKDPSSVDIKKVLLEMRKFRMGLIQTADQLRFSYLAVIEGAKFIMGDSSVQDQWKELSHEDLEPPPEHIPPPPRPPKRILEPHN
Exercise: state measured IC50 for each of the compounds provided.

{"columns": ["molecule.smiles", "IC50"],
 "data": [
  ["O=C1CN(c2c(O)cc3ccc(OCCN4CCNC4=O)cc3c2F)S(=O)(=O)N1", "10 to 100 nM"],
  ["O=C1CN(c2c(O)cc3ccc(OC(F)F)cc3c2F)S(=O)(=O)N1", "10 to 100 nM"],
  ["CCNCCOc1ccc2cc(O)c(N3CC(=O)NS3(=O)=O)c(F)c2c1", "10 to 100 nM"],
  ["CC(C)(O)CCCc1ccc2cc(O)c(N3CC(=O)NS3(=O)=O)c(F)c2c1", "1 to 10 nM"],
  ["C[C@H](O)CCCc1ccc2cc(O)c(N3CC(=O)NS3(=O)=O)c(F)c2c1", "1 to 10 nM"]
]}

Consider the additional compound presented here.
The value of IC50 measured for the compound N#CCCCCS(=O)(=O)N1CC=C(c2ccc3cc(O)c(N4CC(=O)NS4(=O)=O)c(F)c3c2)C1 turned out to be < 1 nM

The origin of these recorded values is patent US20230019236A1.
